Catalogue of switch fluorescence ratio values
- System: ATP;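 also: ATP exposure 15 min at 22 °C before imaging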
- assay_text: switch fluorescence ratio, 500 uM ATP over buffer (Cy3 cluster intensity, sum of 5 cycles each) (fold (ratio)); higher = stronger signal-on switching upon ATP binding; sequences stand for … in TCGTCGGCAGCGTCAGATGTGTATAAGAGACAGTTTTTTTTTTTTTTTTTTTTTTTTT…TC
- study_conditions: aptamer strand: ATP DNA aptamer (quencher-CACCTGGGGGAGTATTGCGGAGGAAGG + anchor), 100 nM annealed; ATP concentration: 500 uM

Here is how some sequences turned out for switch fluorescence ratio.
sequence_data=CCTGCTGTCC target_entity=ATP measured_result=1.16
sequence_data=TTGGGCCTGA target_entity=ATP measured_result=1
sequence_data=AGGGGTACTC target_entity=ATP measured_result=0.998
sequence_data=TTGCTTCGGG target_entity=ATP measured_result=0.968

Proceed to the following item.
Q: Item under review: GTCGAGGATG . Reported switch fluorescence ratio?
Ans: 1.02

The origin of these recorded values is the supplement of paper PMC10126150.
